System: THRa homodimer (NR concentration 90 nM)
Test: PBM binding z-score (relative to random genomic background probes); higher = stronger binding; sequences stand for … in GC…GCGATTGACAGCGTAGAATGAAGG
VALUE_KIND: PBM binding z-score
Reply: number alone, nothing else.

| RECORD_SEQUENCE | QUANTITATIVE_READOUT |
| --- | --- |
| ACTATTAGTTGAGACGAGGGCAACAGATAGGTTG | 0.255 |
| AGTCAAAGTTTAGGACGAGGTAACGTAAAGCACG | 1.51 |
| CATCAAAGTTCAACTAAGGTAACGTAAAGCACGC | 2.29 |
| TCTAGTTGGTCACGGAGGTCGCACACGACGGGTA | 0.625 |
| CAAATTAGGTCAAGAGGTCAAAGTCCGCTTCCCG | 2.88 |

Task item: Indicate the recorded PBM binding z-score value for this sequence: CGAACTAGGTCACAACAGGACAGTGAAGGATGAT
Reply: 1.16

Task item: Query PBM binding z-score for GCAGCCAGGTGAAACGCAGGTAACTCAGGGTGGC
Reply: -0.396

Task item: Dear colleague, please send me the reported PBM binding z-score for TCGTGTAGATCAATAGAGGTTAAGAAAGTGCGCT when you can.
Reply: -0.291

Task item: Output PBM binding z-score of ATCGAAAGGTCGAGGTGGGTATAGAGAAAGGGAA
Reply: 0.668

Task item: For the sequence CTACCAAGGTGAACAAGGACGTTGATTACTATTC , give its reported PBM binding z-score.
Reply: 1.36

Task item: Answer with the recorded PBM binding z-score for the sequence listed here: ACAGACTGGTGATGAAGGTAACTCAGGCTATCAT
Reply: -0.264

Task item: Report PBM binding z-score, nothing else, for this sequence: TCTGCTAGGTCAACGATGGTCAGCCAATCTGCTA
Reply: 0.561

Task item: Tell us which PBM binding z-score value is on record for CCTATTAGTTGACCATAAGGTCAACCGAAGCTCG
Reply: 5.15

* * *

System: PPARa:RXRa (NR concentration 270 nM, RXRa partner concentration 90 nM)
Assay: PBM binding z-score (relative to random genomic background probes); higher = stronger binding; sequences stand for … in GC…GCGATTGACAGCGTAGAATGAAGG
Tag: Condition met if measured PBM binding z-score is not below 3, Condition not met if it is.

Task item: Check the entry AGTCAACGTTCACTAGGTAACGTAAGATTCAGCT : does PBM binding z-score equal or exceed 3?
Reply: Condition not met

Task item: Is reported PBM binding z-score greater than or equal to 3 here: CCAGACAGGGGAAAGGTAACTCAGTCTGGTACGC
Reply: Condition not met

Task item: Quick check: does GCTCCTAGGTCAGGTTGGTCAGCTAACGGGTACG have PBM binding z-score greater than or equal to 3?
Reply: Condition not met

Task item: Could you please find out whether TCTGCTAGGTCTGTTGGTCAGCTAACGAGCTGCC has PBM binding z-score that meets 3 or exceeds it?
Reply: Condition not met

* * *

Test system: RARg homodimer (NR concentration 270 nM)
Assay: PBM binding z-score (relative to random genomic background probes); higher = stronger binding; sequences stand for … in GC…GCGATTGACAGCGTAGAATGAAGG
The sequences listed here are annotated with their PBM binding z-score.

Check out these entries, answers already filled in.
| RECORD_SEQUENCE | VALUE_KIND | RESULT |
| --- | --- | --- |
| GGAACGAGGGCAAAGTTGATACCATCTGTCGACG | PBM binding z-score | 2.02 |
| CCGACTGGGCCATCAGGTCATTGATATCAACGTT | PBM binding z-score | 1.8 |
| AGTCAAAGTTCACTAGGTAACGTATGATTCAGCT | PBM binding z-score | 5.88 |
| TCTCGGAGGACACGAAAGGTAAGAGCTCGACATC | PBM binding z-score | 1.6 |
| CAGACAGGGTCAGCTAGGCCAGAGTAGGGACGGC | PBM binding z-score | 4.64 |

Task item: In one line, give reported PBM binding z-score of the entry TGTATTAGTTGATTAGGGCAACCGAAACAGCGGA .
Reply: 0.807

Task item: Quote PBM binding z-score reported for GCTAGTTGGTCAGTAATAGGTCACACACCGGTCG please.
Reply: 2.58

Task item: Hello, please tell me recorded PBM binding z-score for this one: TCTTGTAGATCAAGAAGGTTAAGAAAGCCTGAGT
Reply: 0.315

Task item: Quickly give me recorded PBM binding z-score for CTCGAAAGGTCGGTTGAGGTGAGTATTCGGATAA
Reply: 2.91

Task item: Consider the sequence ACAGACAGGTGATGAACGTAACTCAGGCTATCAT and give its recorded PBM binding z-score.
Reply: 0.489

Task item: For TCTTGTAGATCAAGCAGGTTAAGAAGGCCTGAGT , write its PBM binding z-score.
Reply: -0.293

Task item: Determine its reported PBM binding z-score: CAACCAAGGTGAACAAGGTCGTTGATTACTATTC
Reply: 1.64
